study-target: recombinant human IL-31 (C108S), produced in E. coli by ZymoGenetics, MW 18 kDa (human), Q6EBC2
experimental-details: cell-based or functional assay
Recorded Average Fold loss in potency relative to 292.12.3.1, BAF-3(hIL-31R) proliferation assay for the following binders
experimental-endpoint: Average Fold loss in potency relative to 292.12.3.1, BAF-3(hIL-31R) proliferation assay (fold)

- binder: "humanized 292.12.3.1 construct clone 29 (12VH1-gly + HC(F29L, T73K, R94F) + LC(F71Y)) (antibody, human IgG4, V domains shown) VH: QVQLVQSGAEVKKPGASVKVSCKASGYTLTRYWMQWVRQAPGQGLEWMGAIYPGDGDTRYSQKFQGRVTMTRDKSISTVYMELSSLRSEDTAVYYCAFPDGYYAAPYGMDYWGQGTLVTVSS VL: DIQMTQSPSSLSASVGDRVTITCRASGNIHNYLAWYQQKPGKVPKLLIYNAKTLADGVPSRFSGSGSGTDYTLTISSLQPEDVATYYCQHFWSTPWTFGQGTKVEIKR"
  result-value: 8.3
- binder: "humanized 292.12.3.1 construct clone 24 (12VH5-gly + HC(fback) + LC(G66R, G68E, F71Y)) (antibody, human IgG4, V domains shown) VH: EVQLVQSGAEVKKPGESLKISCKASGYTLTRYWMQWVRQMPGKGLEWMGAIYPGDGDTRYSPSFQGQVTLTADKSISTAYLQWSSLKASDTAMYYCAFPDGYYAAPYGMDYWGQGTTVTVSS VL: DIQMTQSPSSLSASVGDRVTITCRASGNIHNYLAWYQQKPGKVPKLLIYNAKTLADGVPSRFSGSRSETDYTLTISSLQPEDVATYYCQHFWSTPWTFGQGTKVEIKR"
  result-value: 4
- binder: "humanized 292.12.3.1 construct clone 31 (12VH1-gly + HC(F29L, M69L, R71A, V78A, R94F) + LC(F71Y)) (antibody, human IgG4, V domains shown) VH: QVQLVQSGAEVKKPGASVKVSCKASGYTLTRYWMQWVRQAPGQGLEWMGAIYPGDGDTRYSQKFQGRVTLTADTSISTAYMELSSLRSEDTAVYYCAFPDGYYAAPYGMDYWGQGTLVTVSS VL: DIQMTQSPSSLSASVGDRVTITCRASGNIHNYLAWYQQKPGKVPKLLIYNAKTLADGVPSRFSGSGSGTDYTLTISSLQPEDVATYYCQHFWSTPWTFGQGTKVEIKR"
  result-value: 25.1
